tested on: RVFV strain MP12; experiment: microbe, parasite or virus in culture; format: cell-based, Rift Valley fever virus; details: Rift Valley fever virus, HeLa, 24 h
Consider the following compounds and their measured EC50 readings.
The answer is to be given in µM; state only the numeric part.

Per the records, this compound ( COc1ccc(CN2C(=O)C(=O)c3cc(C)ccc32)cc1 ) has EC50 equal to 61.5

Per the records, this compound ( COc1ccccc1CNC(=O)C1c2c(n(C)c3ccccc23)SCC(=O)N1c1ccc(OC)c(OC)c1 (centres unmarked) ) has EC50 equal to 13.6

Per the records, this compound ( CC1(C(=O)NCc2ccccc2)Cn2c(cc3occc32)C(=O)N1Cc1ccc(Cl)cc1 (centres unmarked) ) has EC50 equal to 14.4

Per the records, this compound ( NC(=O)c1ncn([C@@H]2O[C@H](CO)[C@@H](O)[C@H]2O)n1 [Ribavirin, ribavirin, reference compound] ) has EC50 equal to 27.2

Per the records, this compound ( Cc1ccc(NC(=O)Nc2cc(NC(=O)c3ccc(F)cc3)ccc2N2CCCC2)c(Cl)c1 ) has EC50 equal to 20

* * *

tested on: LASV (Josiah); assay: microbe, parasite or virus in culture; format: cell-based, Lassa virus; settings: Mammarenavirus lassaense, HeLa, 24 h
Readout Name: EC50 (µM)
The answer is to be given in µM; state only the numeric part.

Per the records, this compound ( Cc1ccc(NC(=O)Nc2cc(NC(=O)c3ccc(F)cc3)ccc2N2CCCC2)c(Cl)c1 [F694-1532] ) has EC50 equal to 80.4

Per the records, this compound ( COc1ccc(CN2C(=O)C(=O)c3cc(C)ccc32)cc1 [D011-2120] ) has EC50 equal to 46.8

Per the records, this compound ( CC1(C(=O)NCc2ccccc2)Cn2c(cc3occc32)C(=O)N1Cc1ccc(Cl)cc1 (stereo not shown) [C795-0925] ) has EC50 equal to 81.4

Now take the following compound into account.
Per the records, this compound ( NC(=O)c1ncn([C@@H]2O[C@H](CO)[C@@H](O)[C@H]2O)n1 [Ribavirin, ribavirin, reference compound] ) has EC50 equal to 6.8

* * *

test system: Golgi complex in HeLa-G cells; test: cells; type: cell-based, human
Parameter threshold = 20%. Response is 1 when %GNL (lowest % of Golgi number achievable at the compound's highest concentration) meets or exceeds it, else -1.

Quick check: does COc1ccccc1CNC(=O)C1c2c(n(C)c3ccccc23)SCC(=O)N1c1ccc(OC)c(OC)c1 (centres unmarked) have %GNL (lowest % of Golgi number achievable at the compound's highest concentration) greater than or equal to 20%?
1

Quick check: does NC(=O)c1ncn([C@@H]2O[C@H](CO)[C@@H](O)[C@H]2O)n1 [Ribavirin, ribavirin, reference compound] have %GNL (lowest % of Golgi number achievable at the compound's highest concentration) greater than or equal to 20%?
1

Quick check: does CC1(C(=O)NCc2ccccc2)Cn2c(cc3occc32)C(=O)N1Cc1ccc(Cl)cc1 (centres unmarked) have %GNL (lowest % of Golgi number achievable at the compound's highest concentration) greater than or equal to 20%?
1

API: the following record is the query input.
Quick check: does COc1ccc(CN2C(=O)C(=O)c3cc(C)ccc32)cc1 have %GNL (lowest % of Golgi number achievable at the compound's highest concentration) greater than or equal to 20%?
-1
